Molecular target: Bromodomain-containing protein 4 (Homo sapiens, UniProt O60885)
Experiment: A mix consisting of 15 nM GST-BRD4-BD1 protein (aa 44-168) or 150 nM GST-BRD4-BD2 (aa 333-460) and 15 nM biotinylated Acetyl-Histone H4 (Lys5, 8, 12, 16) peptide is prepared in assay buffer (50 mM HEPES pH=7.4; 25 mM NaCl; 0.05% Tween 20; 0.1% bovine serum albumin (BSA); 10 mM dithiothreitol (DTT)). 6 μl of the mix is added to the compound dilutions. Subsequently, 6 μl of premixed AlphaLISA Glutathione Acceptor Beads and AlphaScreen Streptavidin Donor Beads from PerkinElmer (in assay buffer at a concentration of 10 μg/ml each) are added and the samples are incubated for 30 min at RT in the dark (shaking 300 rpm). Afterwards, the signal is measured in a PerkinElmer Envision HTS Multilabel Reader using the AlphaScreen protocol from PerkinElmer.Each plate contains negative controls where biotinylated Acetyl-Histone H4 peptide and GST-BRD4-BD1 or GST-BRD4-BD2 are left out and replaced by assay buffer. Negative control values are entered as low basis value when using the software GraphPad Prism for calculations. Furthermore, a positive control (probe molecule JQ1+ with protein/peptide mix) is pipetted. Determination of IC50 values are carried out using GraphPad Prism 3.03 software (or updates thereof).
READOUT: IC50

Request: What measured IC50 goes with "CNc1nc(-c2nn(C)c(C)c2Oc2ccccc2)cn2c(C)nnc12" ?
Result: 8 nM
